TARGET: Sigma non-opioid intracellular receptor 1 (Homo sapiens, UniProt Q99720)
Sequence (Q99720 whole entry): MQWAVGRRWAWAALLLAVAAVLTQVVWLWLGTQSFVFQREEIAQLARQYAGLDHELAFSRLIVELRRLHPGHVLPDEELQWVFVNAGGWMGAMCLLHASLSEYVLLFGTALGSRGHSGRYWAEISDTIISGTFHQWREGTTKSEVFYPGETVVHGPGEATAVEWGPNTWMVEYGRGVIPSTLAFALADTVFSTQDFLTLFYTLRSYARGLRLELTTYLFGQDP
PROTOCOL SUMMARY: Displacement [3H]-Pentazocine from sigma 1 receptor (unknown origin) expressed in HEK cell membranes
PARTICULARS: read-out: Ki
MEASUREMENT TYPE: Ki (nM)

# STRUCTURE SMILES, TARGET, Ki / nM
measured = [
    ("O/N=C(/CCCN1CCCN(c2ccccn2)CC1)c1ccc(F)cc1", "Sigma non-opioid intracellular receptor 1 (Homo sapiens, UniProt Q99720)", 70),
]

(A) Clc1ccc(N2CCN(CCCOc3ccccc3)CC2)cc1
(B) O/N=C(/CCCN1CCCN(c2ncccn2)CC1)c1ccc(F)cc1
(C) Fc1ccc(CCCCN2CCCN(c3ccc(Cl)cc3)CC2)cc1
Qu. Endpoint returns the given compounds ordered by ascending Ki. Returns: the labels arranged in the requested order.
Ans. C, A, B
(C: 3.6 nM, A: 51.7 nM, B: 148 nM)

----------
TARGET: Sigma non-opioid intracellular receptor 1 (Homo sapiens, UniProt Q99720)
PROTOCOL SUMMARY: Displacement [3H]-Pentazocine from sigma 1 receptor (unknown origin) expressed in HEK cell membranes
PARTICULARS: read-out: Ki
pKi: −log10 of the molar value.
MEASUREMENT TYPE: pKi

Solved entries (count: 9):
# COMPOUND, pKi
data = [
    ("OC1(c2ccc(Cl)cc2)CC2CCC(C1)N2CCCSc1ccc(F)cc1 (stereo unspecified)", 7.09),
    ("OC1(c2ccc(Cl)cc2)CC2CCC(C1)N2CCCSc1cccc(F)c1 (stereo unspecified)", 7.15),
    ("O=C(CCCN1CCCN(c2ncccn2)CC1)c1ccc(F)cc1", 7.20),
    ("[O-][S+](CCCN1CCN(c2ccc(Cl)cc2)CC1)c1ccc(F)cc1 (stereo unspecified)", 5.94),
    ("Fc1ccc(OCCCN2CCCN(c3ccc(Cl)cc3)CC2)cc1", 8.54),
    ("Fc1ccc(CCCCN2CCN(c3ccc(Cl)cn3)CC2)cc1", 7.02),
    ("O=C(CCCN1CCCN(c2ccc(Cl)cn2)CC1)c1ccc(F)cc1", 7.52),
    ("Fc1ccc(OCCCN2CCN(c3ccccc3)CC2)cc1", 7.38),
    ("OC1(c2ccc(Cl)cc2)CC2CCC(C1)N2CCCCc1ccc(F)cc1 (stereo unspecified)", 7.66),
]

(P) Fc1ccc(SCCCN2CCCN(c3ccc(Cl)cn3)CC2)cc1
(Q) O/N=C(/CCCN1CCCN(c2ccc(Cl)cn2)CC1)c1ccc(F)cc1
Qu. Field: lower pKi | Options: P / Q // output: label of the selected item
Ans. Q
(Q: 6.95, P: 8.14)

----------
TARGET: Sigma intracellular receptor 2 (Homo sapiens)
PROTOCOL SUMMARY: Displacement [3H]-DTG from sigma 2 receptor (unknown origin) expressed in HEK cell membranes
pKi: −log10 of the molar value.
MEASUREMENT TYPE: pKi

# COMPOUND, MEASUREMENT TYPE, VALUE REPORTED
data = [
    ("OC1(c2ccc(Cl)cc2)CC2CCC(C1)N2CCCOc1ccc(F)cc1 (stereo not given)", "pKi", 7.74),
    ("OC1(c2ccc(Cl)cc2)CC2CCC(C1)N2CCCSc1cccc(F)c1 (stereo not given)", "pKi", 8.09),
    ("OC1(c2ccc(Cl)cc2)CC2CCC(C1)N2CCCSc1ccccc1F (stereo not given)", "pKi", 8.66),
]

(A) Fc1ccc(OCCCN2CCCN(c3ccc(Cl)cc3)CC2)cc1
(B) c1ccc(OCCCN2CCN(c3ccccc3)CC2)cc1
(C) O=C(CCCN1CCCN(c2ncccn2)CC1)c1ccc(F)cc1
(D) O/N=C(/CCCN1CCCN(c2ccc(Cl)cn2)CC1)c1ccc(F)cc1
Qu. Output the entries ranked by pKi from maximum down to minimum. Returns: the labels arranged in the requested order.
Ans. D, A, B, C

----------
TARGET: Sigma intracellular receptor 2 (Homo sapiens, UniProt Q5BJF2)
Sequence (Q5BJF2 whole entry): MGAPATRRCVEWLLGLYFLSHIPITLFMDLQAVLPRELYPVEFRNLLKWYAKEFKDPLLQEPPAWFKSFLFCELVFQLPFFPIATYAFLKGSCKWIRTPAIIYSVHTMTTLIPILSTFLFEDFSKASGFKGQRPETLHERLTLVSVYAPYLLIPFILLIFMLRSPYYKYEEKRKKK
PROTOCOL SUMMARY: Displacement [3H]-DTG from sigma 2 receptor (unknown origin) expressed in HEK cell membranes
pKi: −log10 of the molar value.
MEASUREMENT TYPE: pKi

# COMPOUND, pKi
measured = [
    ("[O-][S+](CCCN1CCN(c2ccc(Cl)cc2)CC1)c1ccc(F)cc1 (stereo not drawn)", 6.22),
    ("Fc1ccc(CCCCN2CCN(c3ccc(Cl)cn3)CC2)cc1", 7.37),
    ("O=C(CCCN1CCN(c2ccccn2)CC1)c1ccc(F)cc1", 7.28),
    ("O/N=C(/CCCN1CCCN(c2ncccn2)CC1)c1ccc(F)cc1", 7.59),
    ("O/N=C(/CCCN1CCCN(c2ccccn2)CC1)c1ccc(F)cc1", 7.88),
    ("Clc1ccc(N2CCN(CCCOc3ccccc3)CC2)cc1", 7.48),
    ("OC1(c2ccc(Cl)cc2)CC2CCC(C1)N2CCCCc1ccc(F)cc1 (stereo not drawn)", 7.57),
    ("Fc1ccc(SCCCN2CCCN(c3ccc(Cl)cn3)CC2)cc1", 8.66),
]

(1) O=C(CCCN1CCN(c2ccc(Cl)cn2)CC1)c1ccc(F)cc1
(2) O=C(CCCN1CCCN(c2ccccn2)CC1)c1ccc(F)cc1
Qu. Which numeric pKi is bigger, that of 1 or that of 2 ? // output: label of the selected item
Ans. 1
(1: 8.08, 2: 7.49)

(1) Fc1ccc(CCCCN2CCCN(c3ccc(Cl)cc3)CC2)cc1
(2) Fc1ccc(OCCCN2CCN(c3ccccc3)CC2)cc1
Qu. Which numeric pKi is bigger, that of 1 or that of 2 ? // output: label of the selected item
Ans. 2
